B1: HMOX1 (parent)
chain: YHIYVALEEEIERNKESPVFAPVY

Variants of: B1
testProtocol: protein stability index of a GFP-peptide fusion (GPS, HEK-293T) (PSI 1-6); higher = more stable;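 note: lentivirally expressed fusions sorted by FACS into six bins by GFP to DsRed ratio, PSI derived from sequencing read proportions per bin multiplied by bin number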
conditionSummary: c terminus: a fixed tail appended
Could you please report measured protein stability index for the items listed next?
Numbers only.

>>> df
                          residues  measuredresult
0  YHIYVALEEEIIRNKESPVFAPVY [E12I]            1.45
1   YHIYQALEEEIERNKESPVFAPVY [V5Q]            3.94
2   YHIYVWLEEEIERNKESPVFAPVY [A6W]             2.2

Record protein stability index per entry; entries follow.
1. YHIYVALEEEIKRNKESPVFAPVY [E12K]
2. YHIYVALEEEIERNKESPQFAPVY [V19Q]

a:
1: 1.94; 2: 2.14

Record protein stability index per entry; entries follow.
1. YHIYVALEEEIELNKESPVFAPVY [R13L]
2. YHIYVALEGEIERNKESPVFAPVY [E9G]
3. YHIPVALEEEIERNKESPVFAPVY [Y4P]
4. YHIYNALEEEIERNKESPVFAPVY [V5N]
5. YHIYVALEEEIERNKESPVFAFVY [P22F]
6. GHIYVALEEEIERNKESPVFAPVY [Y1G]

a:
1: 1.22; 2: 2.06; 3: 1.78; 4: 3.59; 5: 2.91; 6: 2.26

Record protein stability index per entry; entries follow.
1. YHIYVALEEEIERNDESPVFAPVY [K15D]
2. YRIYVALEEEIERNKESPVFAPVY [H2R]

a:
1.57
2.72

Record protein stability index per entry; entries follow.
1. YHHYVALEEEIERNKESPVFAPVY [I3H]
2. YHIYVALEEEIERNKSSPVFAPVY [E16S]
3. YHIYVALEEEIERNWESPVFAPVY [K15W]
4. YHIYVALEEEIGRNKESPVFAPVY [E12G]
5. YHIYVALEEEIEDNKESPVFAPVY [R13D]
6. YHIYGALEEEIERNKESPVFAPVY [V5G]

a:
[2.29, 2.04, 2.21, 3.07, 1.52, 2.23]
